- assay.system: PPARγ-RXRα heterodimer (Homo sapiens)
- Sequence (P37231 29-505): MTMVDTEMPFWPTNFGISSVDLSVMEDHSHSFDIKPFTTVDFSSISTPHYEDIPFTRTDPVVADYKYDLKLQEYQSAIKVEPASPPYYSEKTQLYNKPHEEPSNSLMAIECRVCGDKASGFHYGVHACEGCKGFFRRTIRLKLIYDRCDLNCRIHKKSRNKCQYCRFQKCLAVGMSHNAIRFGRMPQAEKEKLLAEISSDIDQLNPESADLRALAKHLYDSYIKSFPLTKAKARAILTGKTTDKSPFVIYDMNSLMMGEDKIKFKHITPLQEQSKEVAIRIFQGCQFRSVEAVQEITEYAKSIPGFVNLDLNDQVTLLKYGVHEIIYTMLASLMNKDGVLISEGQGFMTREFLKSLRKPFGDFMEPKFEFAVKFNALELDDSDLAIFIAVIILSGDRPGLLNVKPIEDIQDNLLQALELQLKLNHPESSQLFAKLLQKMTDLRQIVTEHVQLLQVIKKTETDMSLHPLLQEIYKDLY
- Sequence (P19793 whole entry partner): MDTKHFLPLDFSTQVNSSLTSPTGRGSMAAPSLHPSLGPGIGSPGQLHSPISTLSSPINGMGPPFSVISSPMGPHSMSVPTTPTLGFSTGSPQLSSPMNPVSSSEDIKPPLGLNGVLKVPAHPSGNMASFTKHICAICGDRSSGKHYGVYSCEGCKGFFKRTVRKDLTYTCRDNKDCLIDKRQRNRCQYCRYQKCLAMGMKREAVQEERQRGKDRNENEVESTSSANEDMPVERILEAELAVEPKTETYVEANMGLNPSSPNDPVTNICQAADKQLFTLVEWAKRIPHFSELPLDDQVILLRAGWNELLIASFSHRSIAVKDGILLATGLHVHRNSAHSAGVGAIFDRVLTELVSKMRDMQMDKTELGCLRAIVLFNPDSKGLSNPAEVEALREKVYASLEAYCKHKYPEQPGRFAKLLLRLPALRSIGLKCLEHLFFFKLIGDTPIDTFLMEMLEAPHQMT
- assay.explanation: PPARγ-RXRα heterodimer ligand activity, luciferase reporter in PPARγ:RXRα:4ERPP/CHO-K1 cells (Test Example 3)
- assay.conditions: 18-48 hours, concentration for 50% of the maximum fold induction
measured.attribute: log10 EC50 (log10 of the value in nM)
Short version: log10 scale, EC50, nM.

log10 EC50 reading for CCCc1nn(-c2ccc(C(F)(F)F)cn2)cc1CCCOc1c(CC)cccc1CC(=O)O : 1.32

----------
The entries below come with measured melting point values attached.

melting point reading for O=C(O)Cc1ccc(OCCCCc2cc(-c3ccc(C(F)(F)F)cc3)no2)cc1 : 125 to 126 °C

melting point reading for CCCc1nn(-c2ccc(C(F)(F)F)cn2)cc1CCCCOc1ccc(CCC(=O)O)c(C)c1 : 105 to 107 °C

melting point reading for COc1cc(CCC(=O)O)ccc1OCCCc1cn(-c2ccc(C(F)(F)F)cn2)nc1C : 136 to 137 °C

melting point reading for COc1ccc(OC(C)(C)C(=O)O)cc1OCCCc1cn(-c2ccc(C(F)(F)F)cn2)nc1C(C)C : 106 to 107 °C

melting point reading for Cc1cccc(CC(=O)O)c1OCCCc1cn(-c2ccc(C(F)(F)F)nn2)nc1C(C)(C)C : 96 to 97 °C

melting point reading for Cc1nn(-c2ccc(C(F)(F)F)cn2)cc1CCCOc1cccc(OC(C)(C)C(=O)O)c1 : 107 to 108 °C

melting point reading for CCOc1nn(-c2ccccn2)cc1CCCOc1cccc(CC(=O)O)c1 : 66 to 67 °C

Switching to the query record.
melting point reading for CCOc1nn(-c2ccc(C(F)(F)F)cn2)cc1CCCOc1cc(CC(=O)O)ccc1OC : 142 to 143 °C

----------
The entries below come with measured melting point values attached.

Here is how some compounds turned out for melting point.
melting point reading for CCCc1nn(-c2ccc(C(F)(F)F)cn2)cc1CCCOc1cccc(OC(C)(C)C(=O)O)c1 : 99 to 100 °C

melting point reading for CCCc1nn(-c2ccc(C(F)(F)F)cn2)cc1CCCOc1c(CC)cccc1CC(=O)O : 146 to 147 °C

melting point reading for O=C(O)CCc1cc(OCCCc2cn(-c3ccc(C(F)(F)F)cn3)nc2-c2ccccc2)nn1-c1ccccc1 : 175 to 176 °C

melting point reading for CCCc1nn(-c2ccc(C(F)(F)F)cn2)cc1CCCOc1nn(C)cc1CCC(=O)O : 103 to 104 °C

melting point reading for O=C(O)Cc1ccc(OCCCc2cc(-c3ccc(C(F)(F)F)cc3)no2)cc1 : 127 to 128 °C

melting point reading for CCc1cccc(CC(=O)O)c1OCCCc1cn(-c2ccc(Cl)cn2)nc1C(C)C : 142 to 143 °C

melting point reading for CCOc1nn(-c2ccc(C(F)(F)F)cn2)cc1CCCOc1cccc(C(C)(C)C(=O)O)c1 : 131 to 132 °C

melting point reading for CCOc1ccc(CC(=O)O)cc1OCCCc1cn(-c2ccc(C(F)(F)F)cn2)nc1C1CCCCC1 : 134 to 135 °C

melting point reading for CCc1cnc(-n2cc(CCCOc3c(CC(=O)O)cccc3OC)c(C(C)C)n2)nc1 : 103 to 104 °C

melting point reading for CCOc1nn(-c2ccc(C(F)(F)F)cn2)cc1CCCOc1cccc(CCC(=O)O)c1 : 88 to 89 °C

New cases:
melting point reading for CCOc1nn(-c2ccc(C(F)(F)F)cn2)cc1CCCOc1cc(CCC(=O)O)n(-c2ccccc2)n1 : 121 to 122 °C

melting point reading for O=C(O)Cc1ccccc1OCCCCc1cc(-c2ccc(C(F)(F)F)cc2)no1 : 122 to 123 °C
